Taken from patent US5362751A.

System: tracheal smooth muscle
Experiment: Tracheaectasy: inhibition of histamin-induced contraction of circular slices of guinea pig trachea in Magnus tube
Details: contraction by 5.4×10^-4 M histamin; cumulative administration; read-out: IC50 (concentration exhibiting the inhibition rate of 50%)
Description: A male guinea pig weighing about 300 g was beaten to death, and immediately drew the blood by cutting its arteriae femoral as pouring water. A trachea was picked out and cut lengthwise at the opposite side of tracheal smooth muscle and cut into circular slices between cartilages. The obtained seven circular slices of the trachea were tied like as a chain with a thread, and hung into Magnus tube. […]
pIC50: −log10 of the molar value.
Recorded pIC50 values for a group of compounds are listed next.
MEASURE NAME: pIC50

COMPOUND | VALUE OBSERVED
CCCCC(C)C(=O)CC[C@H]1[C@H](O)CC(=O)[C@@H]1C/C=C\CC(C)CC(=O)OC (stereo partly drawn) | 5.15
CCCCCC(=O)CCC1C(O)CC(=O)C1CC=CCC(C)CC(=O)OCC (stereo not drawn) | 5.15
CCCCC(C)C(=O)CCC1C(O)CC(=O)C1CC(=O)CCCCC(=O)OCC (stereo not drawn) | 6.22
CCCCC(C)(C)C(=O)CCC1C(O)CC(=O)C1CC=CCCCC(=O)OCC (stereo not drawn) | 5.70
CCCCC(C)C(=O)CCC1C(O)CC(=O)C1CC=CCCCC(=O)OCC (stereo not drawn) | 5.15
COC(=O)CCCCC(=O)CC1C(=O)CC(O)C1CCC(=O)CCCC(C)C (stereo not drawn) | 4.52
CCCCC(C)C(=O)CC[C@H]1[C@H](O)CC(=O)[C@@H]1C/C=C\CCCC(=O)OC (stereo partly drawn) | 6.40
CCOC(=O)CCCCC(=O)CC1C(=O)CC(O)C1CCC(=O)CCCC(C)C (stereo not drawn) | 4.52
CCCCCCC(=O)CC[C@H]1[C@H](O)CC(=O)[C@@H]1CC(=O)CCCCC(=O)OCC | 5.40
CCCCC(C)(C)C(=O)CC[C@H]1[C@H](O)CC(=O)[C@@H]1CC(=O)CCCCC(=O)OCC | 5.40
CCCCC(C)(C)C(=O)CC[C@H]1[C@H](O)CC(=O)[C@@H]1C/C=C\CCCC(=O)OC | 5.70
CCCCC(C)C(=O)CCC1C(O)CC(=O)C1CC(=O)CCCCC(=O)OC (stereo not drawn) | 6.40
